The reported numbers originate from patent US7901893B2.

- experimentalTarget: rat brush border membrane vesicles (Rattus norvegicus, UniProt Q6T3U3)
- Construct: from tissue; host or cells: rat (male Sprague-Dawley) small-intestinal mucosa, brush border membrane vesicles
- testProtocol: Binding assay with rat brush border membrane vesicles
- testConditions: rat membrane binding assay; read-out: Kd for the rat target
observationType: Kd

State, in one line, measured Kd of O=C(O)C1OC(Oc2ccc(C3C(CCC(O)c4ccc(F)cc4)C(=O)N3c3ccc(F)cc3)cc2)C(O)C(O)C1O (single isomer, unassigned) [Compound 4]
> 100 µM

---

- experimentalTarget: mouse intestinal brush border membranes (Mus musculus)
- Construct: from tissue; host or cells: mouse small-intestinal mucosa (C57BL/6J; wild-type littermates in the knockout comparison), brush border membrane vesicles
- testProtocol: Binding assay with mouse (wild type) brush border membrane vesicles
- testConditions: age-matched wild-type mice; 0.03% sodium taurocholate and 0.05% digitonin
observationType: pKd
// pKd here means minus log10 of the molar concentration (mol/L)

Name the recorded pKd of the compound listed here: O=C(O)[C@H]1O[C@@H](Oc2ccc([C@@H]3[C@@H](CC[C@H](O)c4ccc(F)cc4)C(=O)N3c3ccc(F)cc3)cc2)[C@H](O)[C@@H](O)[C@@H]1O [Compound 1, Ezetimibe glucuronide]
4.92
